Source: patent US20260053834A1

# Tested on: LAPC4 prostate cancer cells, which express the AKT1 E17K allele
# assay.remarks: Antiproliferative effects in LAPC4 cells (CellTiter Glo, 72 h)
# Format: cell-based
# condition.context: Homo sapiens, LAPC4, 72 h, read-out: LAPC4 proliferation IC50: GeoMean IC50
measurement.kind: IC50

Previously resolved entries follow.
smiles.text | measurement.kind | readout.value
Nc1ncccc1-c1nc2ccc(-c3ncco3)nc2n1-c1ccc2c(c1)CC[C@@H]2NC(=O)c1cc(C=O)c(O)c(F)c1F | IC50 | 10 to 100 nM
Nc1ncccc1-c1nc2ccc(-c3cccnc3)nc2n1-c1ccc2c(c1)CC[C@@H]2NC(=O)c1ccc(O)c(C=O)c1 | IC50 | 10 to 100 nM
CC(=O)Nc1ccc(C(=O)N[C@H]2CCc3cc(-n4c(-c5cccnc5N)nc5ccc(C)nc54)ccc32)cc1C=O | IC50 | 100 to 2000 nM
Nc1ncccc1-c1nc2ccc(-c3ccccc3)nc2n1-c1ccc2c(c1)CC[C@@H]2NC(=O)c1ccc(B(O)O)c(C=O)c1 | IC50 | 100 to 2000 nM
Nc1ncccc1-c1nc2c(F)cc(-n3cccn3)nc2n1-c1ccc2c(c1)CC[C@@H]2NC(=O)c1ccc(O)c(C=O)c1 | IC50 | 100 to 2000 nM

Give IC50 for each of the items listed below.
1. Nc1ncccc1-c1nc2ccc(-c3ccccc3)nc2n1-c1ccc2c(c1)CC[C@@H]2NC(=O)C1(c2cnc(C=O)c(O)c2)CC1
2. Nc1ncccc1-c1nc2ccc(-n3cccn3)nc2n1-c1ccc2c(c1)CC[C@@H]2n1cnc2cc(O)c(C=O)cc2c1=O

OUT:
≥ 2000 nM
10 to 100 nM
